Test system: LC-2-ad
Assay: relative viability (nuclei count vs DMSO), 5 days (fraction); higher = more cells survive
Conditions: first compound 8 µM

Compound	relative viability
CCCCCCCCCCCC1=C(O)C(=O)C=C(O)C1=O [Embelin] + Nc1nc2[nH]cc(CCc3ccc(C(=O)N[C@@H](CCC(=O)O)C(=O)O)cc3)c2c(=O)[nH]1 [Pemetrexed] (partner 0.2 µM)	0.288
CCCCCCCCCCCC1=C(O)C(=O)C=C(O)C1=O [Embelin] + CC1(C)CCC(c2ccc(Cl)cc2)=C(CN2CCN(c3ccc(C(=O)NS(=O)(=O)c4ccc(N[C@H](CCN5CCOCC5)CSc5ccccc5)c(S(=O)(=O)C(F)(F)F)c4)cc3)CC2)C1 [Navitoclax] (partner 0.5 µM)	0.51
CCCCCCCCCCCC1=C(O)C(=O)C=C(O)C1=O [Embelin] + CC(=O)c1c(C)c2cnc(Nc3ccc(N4CCNCC4)cn3)nc2n(C2CCCC2)c1=O [Palbociclib] (partner 0.5 µM)	0.516
CCCCCCCCCCCC1=C(O)C(=O)C=C(O)C1=O [Embelin] + COc1cc2c(Oc3ccc(NC(=O)C4(C(=O)Nc5ccc(F)cc5)CC4)cc3F)ccnc2cc1OCCCN1CCOCC1 [Foretinib] (partner 0.25 µM)	0.861
CCCCCCCCCCCC1=C(O)C(=O)C=C(O)C1=O [Embelin] + O=C(c1cc(Cc2n[nH]c(=O)c3ccccc23)ccc1F)N1CCN(C(=O)C2CC2)CC1 [Olaparib] (partner 8 µM)	0.727
CCCCCCCCCCCC1=C(O)C(=O)C=C(O)C1=O [Embelin] + CC(C)C[C@H](NC(=O)[C@H](Cc1ccccc1)NC(=O)c1cnccn1)B(O)O [Bortezomib] (partner 0.002 µM)	1.02

These entries and their values trace back to the supplement of paper PMC10307832.
